Test: Repeat-dose study in monkeys, pharmacokinetics (14 and 56 days)
Conditions: both, cynomolgus, monkey, plasma, po, 200 mg/kg, exposure - AUC, dose 200 mg/kg, Day 1, individual animals
measured-property: AUC (µg·h/mL)
Numbers only; they are read as µg·h/mL.

response.value for CC#C[C@@H](CC(=O)O)c1ccc(OCC(C)=C(C)C)cc1 (field: AUC) = 794

====

Experiment: Viability assay, HepG2 cells, MTT test, 48 h
Format: cell-based, human
Settings: human, HepG2 cells, sheet Fig1 panel B (HepG2), 48 h, 50 uM, replicates; read-out: viability, normalized to DMSO-treated controls
The following compounds are shown together with reported viability at 48 h, 50 µM values.
The reply should contain only the number, in %.

Cc1cc(OCCCS(C)(=O)=O)cc(C)c1-c1cccc(COc2ccc3c(c2)OC[C@H]3CC(=O)O)c1 [TAK-875, fasiglifam, reference compound]	61.2

// moving on: another record for viability at 48 h, 50 µM
GET /value?item= CC#C[C@@H](CC(=O)O)c1ccc(OCC(C)=C(C)C)cc1 &field=viability at 48 h, 50 µM returns 109
